This collection of values is drawn from patent US5498632A.

System: Escherichia coli (R 57B)
protocol.notes: MIC in broth, Gram- strains
Format: cell-based
assay.context: 18 h, E. coli (R 57B), read-out: Minimal Inhibitory Concentration (MIC)
quantity.kind: MIC (µg/mL)
Write it as a number; the unit µg/mL goes unstated.

## Input // returns reported MIC for input CCCCCCCCCCCCOC(=O)CC(C[N+](C)(C)C)OC(=O)C(C)C (stereo not shown) [ST 1038]
## Output 100

## Input // returns reported MIC for input CCCCCCCCCCCOC(=O)CC(C[N+](C)(C)C)OC(=O)CCC(C)C (stereo not shown) [ST 1034]
## Output 50

## Input // returns reported MIC for input CCCCCCCCCCCOC(=O)CC(C[N+](C)(C)C)OC(=O)CC(C)C (stereo not shown) [ST 722]
## Output 25

###

For each of the molecules below, state its MIC.
System: Enterobacter aerogenes (UM)
protocol.notes: MIC in broth, Gram- strains
Type: cell-based
assay.context: Klebsiella aerogenes, 18 h, read-out: Minimal Inhibitory Concentration (MIC)
Write it as a number; the unit µg/mL goes unstated.

## Input // returns reported MIC for input CCCCCCCCCCCCOC(=O)CC(C[N+](C)(C)C)OC(=O)CC(C)C (centres unmarked) [ST 1037]
## Output 25

## Input // returns reported MIC for input CCCCCCCCCCCOC(=O)CC(C[N+](C)(C)C)OC(=O)C(C)C (centres unmarked) [ST 712]
## Output 25

###

For each of the compounds below, state its MIC.
System: Bacillus pumilus (CN 607)
protocol.notes: MIC in broth, Gram+ strains
Assay type: cell-based
assay.context: B. pumilus (CN 607), Mueller-Hinton broth, 37° C., 18 hours, read-out: Minimal Inhibitory Concentration (MIC)
Experimental: Evaluation of the Minimal Inhibitory Concentration (MIC) in broth of 15 new substances for Gram+ bacterial strains. The following strains were used: Staphylococcus aureus (4); Streptococcus faecalis (8); Bacillus pumilus (1); Bacillus subtilis (1). MICs were determined by a standard microdilution test, using serial two-fold dilutions of the substances in Mueller-Hinton broth. […]
Write it as a number; the unit µg/mL goes unstated.

## Input // returns reported MIC for input CCCCCCCCCCCOC(=O)CC(C[N+](C)(C)C)OC(=O)CCC(C)C (centres unmarked)
## Output 1.56

## Input // returns reported MIC for input CCCCCCCCCCCOC(=O)CC(C[N+](C)(C)C)OC(=O)CCCCCC (centres unmarked)
## Output 1.56

## Input // returns reported MIC for input CCCCCCCCCCCCCOC(=O)CC(C[N+](C)(C)C)OC(=O)CCCCCC (centres unmarked)
## Output 1.56

## Input // returns reported MIC for input CCCCCCCCCCCCOC(=O)CC(C[N+](C)(C)C)OC(=O)C(C)C (centres unmarked)
## Output 3.12

## Input // returns reported MIC for input CCCCCCCCCCCCCOC(=O)CC(C[N+](C)(C)C)OC(=O)CCCCCCC (centres unmarked)
## Output 1.56

###

Tested on: Streptococcus faecalis (505)
protocol.notes: MIC in broth, Gram+ strains
Assay type: cell-based
assay.context: Enterococcus faecalis; S. faecalis (505), Mueller-Hinton broth, 37° C., 18 hours; read-out: Minimal Inhibitory Concentration (MIC)
quantity.kind: MIC (µg/mL)
Write it as a number; the unit µg/mL goes unstated.

## Input Please state recorded MIC (tested on Streptococcus faecalis (505)) of CCCCCCCCCCCCCOC(=O)CC(C[N+](C)(C)C)OC(=O)CC(C)C (stereo not shown)
## Output 1.56

## Input Please state recorded MIC (tested on Streptococcus faecalis (505)) of CCCCCCCCCCCCCCCCOC(=O)CC(C[N+](C)(C)C)OC(=O)CC(C)C (stereo not shown)
## Output 3.12

## Input Please state recorded MIC (tested on Streptococcus faecalis (505)) of CCCCCCCCCCCOC(=O)CC(C[N+](C)(C)C)OC(=O)CCCCCC (stereo not shown)
## Output 1.56

## Input Please state recorded MIC (tested on Streptococcus faecalis (505)) of CCCCCCCCCCCOC(=O)CC(C[N+](C)(C)C)OC(=O)CC(C)C (stereo not shown)
## Output 3.12

## Input Please state recorded MIC (tested on Streptococcus faecalis (505)) of CCCCCCCCCCCCOC(=O)CC(C[N+](C)(C)C)OC(=O)C(C)C (stereo not shown)
## Output 3.12

## Input Please state recorded MIC (tested on Streptococcus faecalis (505)) of CCCCCCCCCCCCOC(=O)CC(C[N+](C)(C)C)OC(=O)CC(C)C (stereo not shown)
## Output 3.12

## Input Please state recorded MIC (tested on Streptococcus faecalis (505)) of CCCCCCCCCCCOC(=O)CC(C[N+](C)(C)C)OC(=O)CCC(C)C (stereo not shown)
## Output 1.56
